# System: XF 498 CNS
# ASSAY_NOTES: NCI tumour cell line growth inhibition, 48 h
TGI values, listed per item

# COMPOUND, TARGET_OR_SYSTEM, MEASUREMENT_UNIT, REPORTED_RELATION, TGI
rows = [
    ("CO/C(=N\\N=C\\c1ccc(Cl)cc1)c1ccncc1", "XF 498 CNS", "µM", ">", 100),
    ("CCC12C=CCN3CC[C@]4(C(=C(C(=O)OC)[C@@H]1Nc1ncnc5c1ncn5C1OC(COC(C)=O)C(OC(C)=O)C1OC(C)=O)Nc1ccccc14)C32 (stereo not given in full)", "XF 498 CNS", "µM", "=", 7.44),
    ("CC(=O)Oc1c(-c2ccccc2)[nH]c2cc([N+](=O)[O-])c(/C(Cl)=C/c3ccccc3)cc12", "XF 498 CNS", "µM", "=", 19.3),
    ("Cc1c(C(=O)/C=C/c2ccco2)[n+](=O)c2ccccc2n1[O-]", "XF 498 CNS", "µM", ">", 100),
    ("COC(=O)C1=C(O)C(O)=C(C(=O)OC)CC1", "XF 498 CNS", "µM", ">", 100),
]

Data credit: PubChem BioAssay (NCI)
